Test system: SW480 cells
Assay type: cell-based
Settings: read-out: IC50, inhibition of IGF-1 (10 nM)-induced proliferation of SW480 cells; experiment 13262-027
Measured parameter: IC50 (nM)
The reply should contain only the number, in nM.

Give me measured IC50, please, for this sequence: QFYGCLLDLSLGVPSPGWRRRCITA [Peptide F393]
1000

* * *

System: MAPK42
Experiment: downstream signaling in L6 cells: MAPK42
Assay type: cell-based
Settings: 3 nM IGF-1, read-out: MAPK42, IC50 for down regulation of the stimulation to the basal level
# IC50 listing for each entry below
The reply should contain only the number, in nM.

QFYGCLLDLSLGVPSFGWRRRCITA [Peptide F138] :: 300
DFYGCLLDLSLGVPSLGWRRRCITA [Peptide F429] :: 300
SFYSCLESLVKRPTERSRGQWVGCR [Peptide F320] :: 1000

Please find the next sequence below.
Give me measured IC50, please, for this sequence: SFYSCLESLVQGPAEKSRGQWEGCRK [Peptide F293]
1000

* * *

System: PKB/Akt
Assay: downstream signaling in L6 cells: PKB/Akt
Assay type: cell-based
Details: 3 nM IGF-1, read-out: PKB/Akt, IC50 for down regulation of the stimulation to the basal level
Measured parameter: IC50

DFYGCLLDLSLGVPSLGWRRRCITA [Peptide F429] :: 100 nM

Give me measured IC50, please, for this sequence: SFYSCLESLVQGPAEKSRGQWEGCRK [Peptide F293]
> 1000 nM

* * *

System: IGF-1R, IRS-1, MAPK42/44 and PKB/Akt
Assay: IGF-1 induced phosphorylation (IGF-1R, IRS-1, MAPK42/44, PKB/Akt) in L6 and L6 hIR cells, summary in description
Assay type: cell-based
Conditions: read-out: phosphorylation of IGF-1R and MAPK42/44 in response to IGF-1 treatment, IC50
Measured parameter: pIC50
Please report pIC50 as the negative decimal logarithm of the molar concentration, giving only the number.

Give me measured pIC50, please, for this sequence: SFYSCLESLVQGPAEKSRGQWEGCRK [Peptide F293]
6.30

* * *

Test system: SW480 cells
Assay type: cell-based
Details: first value of the cell: concentration needed to blunt the effect of 10 nM IGF-1; cells in words only = effect as reported; 48 hours
Measured parameter: IC50 in SW480 (M) in presence of IGF-1/alone: in presence of IGF-1

Ac-VGRASGPPENFYDWPGRQLSLQSGEQRR [Peptide F287] :: No effect
EISFRCQLFVLAGMHPCPVDVGGEGFE [Peptide F170] :: No effect
